Data provenance: PubChem BioAssay (EPA / NIEHS)

protocolSummary: APR_HepG2_p53Act_24hr: Apredica 24-hour HepG2 Assay for p53 Activation (AID 2282913);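 also: p53 protein immunofluorescence averaged per cell in HepG2 with Hoechst nuclei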
experimentalParameters: high-content imaging, actives raise or lower the signal
The source made the active and inactive calls. The calls were made as follows: active = hit-call score of the fitted dose curve at least 0.9, where 1 is the maximum; inactive = score below 0.9.
readoutType: outcome

1. CC(C)=CCC/C(C)=C\CO    inactive
2. O=C(O)c1cccc(Oc2ccccc2)c1    inactive
3. O=C(O)c1cc(N=Nc2ccc(S(=O)(=O)Nc3ccccn3)cc2)ccc1O    inactive
4. CC[C@H](C)C(=O)O[C@H]1C[C@@H](C)C=C2C=C[C@H](C)[C@H](CC[C@@H]3C[C@@H](O)CC(=O)O3)[C@H]21    inactive
5. Nc1nc2ncc(CNc3ccc(C(=O)N[C@@H](CCC(=O)O)C(=O)O)cc3)nc2c(=O)[nH]1    inactive
6. Fc1ccccc1[C@@H](F)COC1CCC(Nc2ncnc3[nH]ncc23)CC1 (stereo partly specified)    inactive

---

Read-out: solute carrier (SLC22A1), SLC22A1 (gene 6580)
protocolSummary: LTEA_HepaRG_SLC22A1: Life Technologies and Expression Analysis (LTEA) Assay for solute carrier (SLC22A1) using HepaRG (AID 2283524)
experimentalParameters: mRNA level, 48 h; actives raise or lower the signal
Experimental: LTEA_HepaRG is a cell based, multiplexed-readout assay that uses HepaRG, a human liver cell line, with measurements taken at 48 hours after chemical dosing on a 96-well plate.LTEA_HepaRG_SLC22A1 is one of 102 assay component(s) measured in the LTEA HepaRG cell culture assay. It is a marker of NR mediated transport.Data from the assay component LTEA_HepaRG_SLC22A1 was analyzed into 1 endpoint. […]
Active and inactive are the calls of the source. The calls were made as follows: active = hit-call score of the fitted dose curve at least 0.9, where 1 is the maximum; inactive = score below 0.9.
Possible outcomes: active, inactive

1) CCCCCCc1ccc(O)cc1O    inactive
2) C1N2CN3CN1CN(C2)C3    inactive
3) COc1ccc2sc(C(=O)Nc3nnn[nH]3)c(OC(C)C)c2c1    active
4) CN(C)c1ccc(N=NS(=O)(=O)O)cc1    active
5) CCOC(=O)COc1ccc2c(c1)CC(NCC(O)c1cccc(Cl)c1)CC2 (centres undefined)    inactive
6) Cc1ccc(C)c(O)c1    inactive
7) O=C1CCCCCN1    inactive
8) CCCCCCCCO    inactive
9) COc1cccc(-c2ccc(/C=C\CN3CCCCCC3)cc2Cl)c1    active

---

Read-out: solute carrier (SLC22A1), SLC22A1 (gene 6580)
protocolSummary: LTEA_HepaRG_SLC22A1: Life Technologies and Expression Analysis (LTEA) Assay for solute carrier (SLC22A1) using HepaRG (AID 2283524)
experimentalParameters: mRNA level, 48 h; actives raise or lower the signal
Active and inactive are the calls of the source. The calls were made as follows: active = hit-call score of the fitted dose curve at least 0.9, where 1 is the maximum; inactive = score below 0.9.
Possible outcomes: Y for active, N for inactive

1) CC(C)CC(C)(O)C#CC(C)(O)CC(C)C (stereo unspecified)    N
2) CC[C@H]1OC(=O)[C@H](C)[C@@H](O[C@H]2C[C@@](C)(OC)[C@@H](O)[C@H](C)O2)[C@H](C)[C@@H](O[C@@H]2O[C@H](C)C[C@H](N(C)C)[C@H]2O)[C@](C)(O)C[C@@H](C)C(=O)[C@H](C)[C@@H](O)[C@]1(C)O    N
3) COC(=O)c1c(Cl)c(Cl)c(C(=O)OC)c(Cl)c1Cl    N
4) O=P(OC(CCl)CCl)(OC(CCl)CCl)OC(CCl)CCl    Y
5) CC(C)=CCCC(C)=CC=O    N
6) CCCCC(CC)COC(=O)c1ccc(C(=O)OCC(CC)CCCC)cc1 (stereo unspecified)    N
